Documented pKi across a set of compounds
study target: UniProt P23443
Sequence (P23443 whole entry): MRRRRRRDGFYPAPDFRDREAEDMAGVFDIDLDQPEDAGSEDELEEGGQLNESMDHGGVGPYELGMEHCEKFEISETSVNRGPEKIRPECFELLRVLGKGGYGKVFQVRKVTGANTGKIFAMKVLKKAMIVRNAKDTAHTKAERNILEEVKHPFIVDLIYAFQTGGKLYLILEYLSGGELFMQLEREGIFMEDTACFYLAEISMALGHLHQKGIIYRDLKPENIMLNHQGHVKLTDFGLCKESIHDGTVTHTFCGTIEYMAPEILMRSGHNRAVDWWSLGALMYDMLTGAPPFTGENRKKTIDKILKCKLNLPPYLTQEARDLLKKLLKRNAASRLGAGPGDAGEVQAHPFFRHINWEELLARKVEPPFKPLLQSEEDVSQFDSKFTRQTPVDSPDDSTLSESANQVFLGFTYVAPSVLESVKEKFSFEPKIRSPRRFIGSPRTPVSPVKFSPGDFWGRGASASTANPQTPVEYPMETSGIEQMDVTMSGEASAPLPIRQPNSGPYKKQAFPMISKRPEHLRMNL
protocol summary: Inhibition of p70S6K assessed as decrease in NADH absorbance at 340 nm in the presence of
pKi: −log10 of the molar value.
outcome measure: pKi

cpd_smiles=COc1cccc(-n2c(-c3nonc3N)nc3ccccc32)c1 outcome_measure=pKi readout_number=5.72
cpd_smiles=N#Cc1cccc(-n2c(-c3nonc3N)nc3ccccc32)c1 outcome_measure=pKi readout_number=6.10
cpd_smiles=N#Cc1ccc(-n2c(-c3nonc3N)nc3ccccc32)cc1 outcome_measure=pKi readout_number=6.10
cpd_smiles=Nc1nonc1-c1nc2ccccc2n1C1CC1 outcome_measure=pKi readout_number=7.02
cpd_smiles=CC(=O)Nc1ccc2c(c1)nc(-c1nonc1N)n2C1CCC1 outcome_measure=pKi readout_number=5.66
cpd_smiles=Cc1ccc2c(c1)nc(-c1nonc1N)n2C1CCC1 outcome_measure=pKi readout_number=7.72
cpd_smiles=CC(C)Cn1cc(-c2ccccc2)nc1-c1nonc1N outcome_measure=pKi readout_number=7.05
cpd_smiles=Nc1nonc1-c1nc2ccccc2n1-c1ccccc1 outcome_measure=pKi readout_number=6.96
cpd_smiles=Nc1nonc1-c1nc2ccccc2n1C1CCCC1 outcome_measure=pKi readout_number=7.89
cpd_smiles=COc1ccc(-n2c(-c3nonc3N)nc3ccccc32)cc1 outcome_measure=pKi readout_number=6.26
cpd_smiles=Cn1c(-c2nonc2N)nc2ccccc21 outcome_measure=pKi readout_number=6.27
cpd_smiles=COc1ccccc1-n1c(-c2nonc2N)nc2ccccc21 outcome_measure=pKi readout_number=7.51

* * *

pKi: −log10 of the molar value.
So I've got pKi readings for Glycogen synthase kinase-3 beta (Homo sapiens, UniProt P49841), take a look.
outcome measure: pKi

cpd_smiles=CC(C)n1c(-c2nonc2N)nc2ccccc21 outcome_measure=pKi result=5.82
cpd_smiles=N#Cc1cccc(-n2c(-c3nonc3N)nc3ccccc32)c1 outcome_measure=pKi result="< 5.60"
cpd_smiles=COC(=O)c1ccc2c(c1)nc(-c1nonc1N)n2C1CCC1 outcome_measure=pKi result="< 5.48"
cpd_smiles=CC(C)Cn1cc(-c2ccccc2)nc1-c1nonc1N outcome_measure=pKi result="< 5.48"

* * *

Documented pKi across a set of compounds
study target: Rho-associated protein kinase 1 (Homo sapiens)
Sequence (Q13464 whole entry): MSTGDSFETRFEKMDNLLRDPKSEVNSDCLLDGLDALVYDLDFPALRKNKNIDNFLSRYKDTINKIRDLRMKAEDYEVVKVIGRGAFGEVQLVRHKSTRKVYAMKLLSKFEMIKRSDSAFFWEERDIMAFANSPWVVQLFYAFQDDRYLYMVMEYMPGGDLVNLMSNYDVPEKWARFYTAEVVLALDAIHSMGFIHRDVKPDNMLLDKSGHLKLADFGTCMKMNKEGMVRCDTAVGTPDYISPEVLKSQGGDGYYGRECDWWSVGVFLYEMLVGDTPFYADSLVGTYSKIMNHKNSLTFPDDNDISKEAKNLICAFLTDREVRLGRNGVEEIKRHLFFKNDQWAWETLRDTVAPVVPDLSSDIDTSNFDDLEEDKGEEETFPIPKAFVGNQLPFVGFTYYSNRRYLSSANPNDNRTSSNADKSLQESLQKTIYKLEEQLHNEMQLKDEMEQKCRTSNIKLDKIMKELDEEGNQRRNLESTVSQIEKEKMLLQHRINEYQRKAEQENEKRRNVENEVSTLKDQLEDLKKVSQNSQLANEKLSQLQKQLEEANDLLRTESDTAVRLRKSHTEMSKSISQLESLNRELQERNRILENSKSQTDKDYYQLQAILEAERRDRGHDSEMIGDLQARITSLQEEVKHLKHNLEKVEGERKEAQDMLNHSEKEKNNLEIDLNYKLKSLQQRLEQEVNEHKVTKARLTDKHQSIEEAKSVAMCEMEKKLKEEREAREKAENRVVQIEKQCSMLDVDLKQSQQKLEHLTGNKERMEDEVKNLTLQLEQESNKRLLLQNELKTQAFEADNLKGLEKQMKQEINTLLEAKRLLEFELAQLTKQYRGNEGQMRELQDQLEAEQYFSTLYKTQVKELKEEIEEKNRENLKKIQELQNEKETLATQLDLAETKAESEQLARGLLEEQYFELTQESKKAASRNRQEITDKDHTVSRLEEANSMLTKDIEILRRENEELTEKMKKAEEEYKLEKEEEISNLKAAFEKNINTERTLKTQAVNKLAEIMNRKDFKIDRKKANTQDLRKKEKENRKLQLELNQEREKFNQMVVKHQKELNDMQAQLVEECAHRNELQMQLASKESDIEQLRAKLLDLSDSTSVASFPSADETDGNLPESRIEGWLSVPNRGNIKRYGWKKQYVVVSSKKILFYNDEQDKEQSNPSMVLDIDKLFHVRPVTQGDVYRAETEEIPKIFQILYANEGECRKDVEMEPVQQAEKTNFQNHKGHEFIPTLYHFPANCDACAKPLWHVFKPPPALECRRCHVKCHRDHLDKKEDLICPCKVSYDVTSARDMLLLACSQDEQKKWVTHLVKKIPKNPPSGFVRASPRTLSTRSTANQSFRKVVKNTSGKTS
pKi: −log10 of the molar value.
outcome measure: pKi

compound=Nc1nonc1-c1nc2ccccc2n1-c1ccccc1 bound_operator== readout_number=6.23
compound=Nc1ccc2c(c1)nc(-c1nonc1N)n2C1CCC1 bound_operator== readout_number=7.07
compound=Nc1nonc1-c1nc2ccccc2n1C1CCCC1 bound_operator== readout_number=6.47
compound=N#Cc1ccc(-n2c(-c3nonc3N)nc3ccccc32)cc1 bound_operator=< readout_number=5.60
compound=Nc1nonc1-c1nc2ccccc2n1C1CCCCC1 bound_operator== readout_number=6.14
compound=CC(C)Cn1cc(C#N)nc1-c1nonc1N bound_operator=< readout_number=5.48
compound=CC(C)n1c(-c2nonc2N)nc2ccccc21 bound_operator== readout_number=5.72
compound=Cn1c(-c2nonc2N)nc2ccccc21 bound_operator=< readout_number=5.48
compound=Nc1nonc1-c1nc2cc(O)ccc2n1C1CCC1 bound_operator== readout_number=5.66
compound="CCn1c(-c2nonc2N)nc2ccccc21 [GW549034X]" bound_operator== readout_number=6.48
compound=Nc1nonc1-c1nc2ccccc2n1C1CC1 bound_operator== readout_number=6.35
compound=N#Cc1cccc(-n2c(-c3nonc3N)nc3ccccc32)c1 bound_operator=< readout_number=5.60
compound=N#Cc1ccccc1-n1c(-c2nonc2N)nc2ccccc21 bound_operator== readout_number=6.09

Data credit: ChEMBL document CHEMBL1153801
